# protocol details: Positive modulation of GluR1
pEC50: −log10 of the molar value.
Returns one of 1 or -1; 1 when pEC50 is >= 6.

{"columns": ["molecule smiles", "class label"],
 "data": [
  ["CN(C)Cc1cn(CC(=O)Nc2sc3c(c2C(N)=O)CCCC3)nc1C(F)(F)F", 1]
]}

Task: Decide: pEC50 of `CCN(CC)Cc1cn(CCC(=O)Nc2sc3c(c2C(N)=O)CCCC3)nc1C(F)(F)F` >= 6?
Result: -1

Task: hey, is pEC50 for this one >= 6? `COCCNCc1cn(CC(=O)Nc2sc3c(c2C(N)=O)CCCC3)nc1C(F)(F)F`
Result: -1

Task: Hi team, for `CC(C)NCc1cn(CC(=O)Nc2sc3c(c2C(N)=O)CCCC3)nc1C(F)(F)F` , is the recorded pEC50 at or above 6?
Result: -1

Task: Answer whether pEC50 of `CCNCc1cn(CCC(=O)Nc2sc3c(c2C(N)=O)CCCC3)nc1C(F)(F)F` is greater than or equal to 6.
Result: -1

Task: Quick check, pEC50 >= 6? `O=C(Cn1nc(C(F)(F)F)c2c1CCCC2)Nc1sc2c(c1C(=O)N[C@@H]1CCNC1)CCCC2`
Result: 1
